Tested on: KRAS patient-derived spheroids with HUVEC/MSC, viability
Experiment: Anticancer human tumor 941728-121-R-J1-PDC patient-derived lung adenocarcinoma cell line growth inhibition [KRAS2]
Condition Description: second compound 3.16 µM; first compound 0.0316 µM; stronger effect = lower value
Documented viability, T/C across a set of compounds
Measure: viability, T/C (%)

1. CCN1CCN(Cc2ccc(Nc3ncc(F)c(-c4cc(F)c5nc(C)n(C(C)C)c5c4)n3)nc2)CC1 + C=CC(=O)N1CCN(c2nc(=O)n(-c3c(C)ccnc3C(C)C)c3nc(-c4c(O)cccc4F)c(F)cc23)C(C)C1 = 19.6
2. CC1COCCN1c1cc(-c2ccnn2C)c2ccnc(-c3ccn[nH]3)c2n1 (stereo not given) + C=CC(=O)N1CCN(c2nc(=O)n(-c3c(C)ccnc3C(C)C)c3nc(-c4c(O)cccc4F)c(F)cc23)C(C)C1 = 27.1
3. COc1cc2nccc(Oc3ccc(NC(=O)C4(C(=O)Nc5ccc(F)cc5)CC4)cc3)c2cc1OC + CC1OCC2(CCN(c3cnc(Sc4ccnc(N)c4Cl)c(N)n3)CC2)C1N = 25.3
4. CC(=O)OC12COC1CC(O)C1(C)C(=O)C(O)C3=C(C)C(OC(=O)C(O)C(NC(=O)OC(C)(C)C)c4ccccc4)CC(O)(C(OC(=O)c4ccccc4)C21)C3(C)C (stereo not given) + COc1cc2nc(C)nc(NC(C)c3cc(N)cc(C(F)(F)F)c3)c2cc1OC1CCOC1 = 31.4
5. CC(=O)Nc1cccc(-n2c(=O)n(C3CC3)c(=O)c3c(Nc4ccc(I)cc4F)n(C)c(=O)c(C)c32)c1 + CNCc1ccccc1-c1csc(C(C)Nc2nc(C)nc3cc(OC)c(OC)cc23)c1 = 0.25

* * *

System: KRAS patient-derived spheroids with HUVEC/MSC, viability
Experiment: Anticancer human tumor 941728-121-R-J1-PDC cell line growth inhibition [KRAS2];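 further: spheroids exposed to agents for seven days before readout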
Condition Description: second compound 0.1 µM; first compound 0.1 µM; stronger effect = lower value
Measure: viability, T/C (%)

1) O=C(c1cc(Cc2n[nH]c(=O)c3ccccc23)ccc1F)N1CCN(C(=O)C2CC2)CC1 + COc1cc2nc(C)nc(NC(C)c3cc(N)cc(C(F)(F)F)c3)c2cc1OC1CCOC1 = 105
2) COc1cc2nccc(Oc3ccc(NC(=O)C4(C(=O)Nc5ccc(F)cc5)CC4)cc3)c2cc1OC + CC1OCC2(CCN(c3cnc(Sc4ccnc(N)c4Cl)c(N)n3)CC2)C1N = 40
3) CC(C)NCC(C(=O)N1CCN(c2ncnc3c2C(C)CC3O)CC1)c1ccc(Cl)cc1 (stereo not given) + C=CC(=O)N1CCN(c2nc(=O)n(-c3c(C)ccnc3C(C)C)c3nc(-c4c(O)cccc4F)c(F)cc23)C(C)C1 = 20.1
4) COc1cc(Nc2ncc3c(n2)-c2ccc(Cl)cc2C(c2c(F)cccc2OC)=NC3)ccc1C(=O)O + CNCc1ccccc1-c1csc(C(C)Nc2nc(C)nc3cc(OC)c(OC)cc23)c1 = 47.5
5) CCN1CCN(Cc2ccc(Nc3ncc(F)c(-c4cc(F)c5nc(C)n(C(C)C)c5c4)n3)nc2)CC1 + COc1cc2nc(C)nc(NC(C)c3cc(N)cc(C(F)(F)F)c3)c2cc1OC1CCOC1 = 36.8
6) Cn1nccc1Nc1nccc(-c2cc3c(s2)C(C)(C)N(CCN2CCOCC2)C3=O)n1 + C=CC(=O)N1CCN(c2nc(OCC3CCCN3C)nc3c2CCN(c2cccc4cccc(C)c24)C3)CC1CC#N = 24.5
7) CC(=O)OC12COC1CC(O)C1(C)C(=O)C(O)C3=C(C)C(OC(=O)C(O)C(NC(=O)OC(C)(C)C)c4ccccc4)CC(O)(C(OC(=O)c4ccccc4)C21)C3(C)C (stereo not given) + COc1cc2nc(C)nc(NC(C)c3cc(N)cc(C(F)(F)F)c3)c2cc1OC1CCOC1 = 41.4
8) CN(C)C/C=C/C(=O)Nc1cc2c(Nc3ccc(F)c(Cl)c3)ncnc2cc1O[C@H]1CCOC1 + CC1OCC2(CCN(c3cnc(Sc4ccnc(N)c4Cl)c(N)n3)CC2)C1N = 43.3
9) CC1COCCN1c1cc(-c2ccnn2C)c2ccnc(-c3ccn[nH]3)c2n1 (stereo not given) + CNCc1ccccc1-c1csc(C(C)Nc2nc(C)nc3cc(OC)c(OC)cc23)c1 = 39.4
10) CC1(C)CCC(CN2CCN(c3ccc(C(=O)NS(=O)(=O)c4ccc(NCC5CCOCC5)c([N+](=O)[O-])c4)c(Oc4cnc5[nH]ccc5c4)c3)CC2)=C(c2ccc(Cl)cc2)C1 + CC1OCC2(CCN(c3cnc(Sc4ccnc(N)c4Cl)c(N)n3)CC2)C1N = 30.5

* * *

Test system: KRAS patient-derived spheroids with HUVEC/MSC, viability
Experiment: Anticancer human tumor 941728-121-R-J1-PDC cell line growth inhibition [KRAS2];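 further: spheroids exposed to agents for seven days before readout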
Condition Description: compound 1 µM; stronger effect = lower value
Documented viability, T/C across a set of molecules
Measure: viability, T/C

1) Cn1nccc1Nc1nccc(-c2cc3c(s2)C(C)(C)N(CCN2CCOCC2)C3=O)n1 = 48.8% [middle of 5 runs]
2) C=CC(=O)N1CCN(c2nc(OCC3CCCN3C)nc3c2CCN(c2cccc4cccc(C)c24)C3)CC1CC#N (stereo not drawn) = 27.2% [middle of 17 runs]
3) COC(=O)c1ccc2c(C(=Nc3ccc(N(C)C(=O)CN4CCN(C)CC4)cc3)c3ccccc3)c(O)[nH]c2c1 = 68.6% [middle of 5 runs]

* * *

Tested on: KRAS patient-derived spheroids with HUVEC/MSC, viability
Experiment: Anticancer human tumor 941728-121-R-J1-PDC cell line growth inhibition [KRAS2];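 further: spheroids exposed to agents for seven days before readout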
Condition Description: second compound 0.316 µM; first compound 0.1 µM; stronger effect = lower value
Documented viability, T/C across a set of compounds
Measure: viability, T/C (%)

1. CC1(C)CCC(CN2CCN(c3ccc(C(=O)NS(=O)(=O)c4ccc(NCC5CCOCC5)c([N+](=O)[O-])c4)c(Oc4cnc5[nH]ccc5c4)c3)CC2)=C(c2ccc(Cl)cc2)C1 + C=CC(=O)N1CCN(c2nc(OCC3CCCN3C)nc3c2CCN(c2cccc4cccc(C)c24)C3)CC1CC#N = 25.5
2. CN(C)C/C=C/C(=O)Nc1cc2c(Nc3ccc(F)c(Cl)c3)ncnc2cc1O[C@H]1CCOC1 + CNCc1ccccc1-c1csc(C(C)Nc2nc(C)nc3cc(OC)c(OC)cc23)c1 = 29.9

* * *

Documented viability, T/C across a set of compounds
Test system: KRAS patient-derived spheroids with HUVEC/MSC, viability
Experiment: Anticancer human tumor 941728-121-R-J1-PDC cell line growth inhibition [KRAS2];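 further: spheroids exposed to agents for seven days before readout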
Condition Description: second compound 1 µM; first compound 10 µM; stronger effect = lower value
Measure: viability, T/C (%)

1. COc1cc(Nc2ncc3c(n2)-c2ccc(Cl)cc2C(c2c(F)cccc2OC)=NC3)ccc1C(=O)O + CNCc1ccccc1-c1csc(C(C)Nc2nc(C)nc3cc(OC)c(OC)cc23)c1 = 15.1
2. CC1(C)CCC(CN2CCN(c3ccc(C(=O)NS(=O)(=O)c4ccc(NCC5CCOCC5)c([N+](=O)[O-])c4)c(Oc4cnc5[nH]ccc5c4)c3)CC2)=C(c2ccc(Cl)cc2)C1 + C=CC(=O)N1CCN(c2nc(OCC3CCCN3C)nc3c2CCN(c2cccc4cccc(C)c24)C3)CC1CC#N = 1.61
3. CC1(C)CCC(CN2CCN(c3ccc(C(=O)NS(=O)(=O)c4ccc(NCC5CCOCC5)c([N+](=O)[O-])c4)c(Oc4cnc5[nH]ccc5c4)c3)CC2)=C(c2ccc(Cl)cc2)C1 + C=CC(=O)N1CCN(c2nc(=O)n(-c3c(C)ccnc3C(C)C)c3nc(-c4c(O)cccc4F)c(F)cc23)C(C)C1 = 4.29
4. CCNC(=O)CC1N=C(c2ccc(Cl)cc2)c2cc(OC)ccc2-n2c(C)nnc21 (stereo not given) + CNCc1ccccc1-c1csc(C(C)Nc2nc(C)nc3cc(OC)c(OC)cc23)c1 = 11
5. CC(C)NCC(C(=O)N1CCN(c2ncnc3c2C(C)CC3O)CC1)c1ccc(Cl)cc1 (stereo not given) + CC1OCC2(CCN(c3cnc(Sc4ccnc(N)c4Cl)c(N)n3)CC2)C1N = 4.1

* * *

System: KRAS patient-derived spheroids with HUVEC/MSC, viability
Experiment: Anticancer human tumor 941728-121-R-J1-PDC cell line growth inhibition [KRAS2];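 further: spheroids exposed to agents for seven days before readout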
Condition Description: curve of first compound; second compound 1 µM
Measure: IC50

1. CCN1CCN(Cc2ccc(Nc3ncc(F)c(-c4cc(F)c5nc(C)n(C(C)C)c5c4)n3)nc2)CC1 + C=CC(=O)N1CCN(c2nc(OCC3CCCN3C)nc3c2CCN(c2cccc4cccc(C)c24)C3)CC1CC#N = < 3.16 nM
2. COc1cc(Nc2ncc3c(n2)-c2ccc(Cl)cc2C(c2c(F)cccc2OC)=NC3)ccc1C(=O)O + CC1OCC2(CCN(c3cnc(Sc4ccnc(N)c4Cl)c(N)n3)CC2)C1N = < 31.6 nM
3. CC(=O)Nc1cccc(-n2c(=O)n(C3CC3)c(=O)c3c(Nc4ccc(I)cc4F)n(C)c(=O)c(C)c32)c1 + CNCc1ccccc1-c1csc(C(C)Nc2nc(C)nc3cc(OC)c(OC)cc23)c1 = < 0.1 nM
